# assayed.target: OXA-23 (Acinetobacter baumannii)
# Construct: 5'-truncated (54 bp) E. coli-optimized blaOXA-23 gene
# Sequence (Q9L4P2 19-273): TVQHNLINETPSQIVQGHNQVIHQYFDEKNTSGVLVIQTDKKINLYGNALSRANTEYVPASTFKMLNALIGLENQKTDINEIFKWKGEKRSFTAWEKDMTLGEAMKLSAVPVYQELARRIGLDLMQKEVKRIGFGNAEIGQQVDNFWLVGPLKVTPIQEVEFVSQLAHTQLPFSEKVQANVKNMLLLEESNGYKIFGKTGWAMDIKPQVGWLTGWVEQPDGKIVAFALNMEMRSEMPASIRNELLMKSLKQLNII
# test: time-resolved crystal structures ([…] min soaks), ESI-LC/MS, nitrocefin competition kinetics
measurement.name: pKi
When answering, recall that pKi equals minus log10 of the concentration in mol/L, and write that number alone.

Form field pKi, entry C[C@@H](O)[C@H]1C(=O)N2C(C(=O)O)=C(S[C@@H]3CN[C@H](C(=O)N(C)C)C3)C[C@]12C [NA-1-157] : 6.23
